Data origin: ChEMBL document CHEMBL1201862

- Target: Carboxy-terminal domain RNA polymerase II polypeptide A small phosphatase 1 (Homo sapiens, UniProt Q9GZU7)
- Sequence (Q9GZU7 whole entry, the tested form may be a part): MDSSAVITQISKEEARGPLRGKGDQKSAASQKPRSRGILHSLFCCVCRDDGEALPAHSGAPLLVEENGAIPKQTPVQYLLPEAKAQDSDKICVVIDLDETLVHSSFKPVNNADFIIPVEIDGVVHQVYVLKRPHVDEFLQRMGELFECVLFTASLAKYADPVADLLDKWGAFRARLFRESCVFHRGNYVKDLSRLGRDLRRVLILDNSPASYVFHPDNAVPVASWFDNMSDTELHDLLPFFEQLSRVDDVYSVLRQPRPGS
- Test Summary: inhibitors of CTDSP1, concentration-response testing, biochemical assay, absorbance-based, actives from ultra-high-throughput screening (AID 540297)
- Assay type: functional
The source made the active and inactive calls. Rule as the data show it: actives have a measured IC50 and inactives only a lower limit.
Below is a list of entries, each paired with its recorded IC50 value.

Worked set:
Molecule	Value Measured
Cn1c(SCc2cc(=O)n3cc(Br)ccc3n2)nnc1C1COc2ccccc2O1 (configuration not stated)	17.8 µM (active)
Cc1ccc(-c2csc(C3=C(N)N(NC(=O)c4ccco4)CC3=O)n2)cc1	12.9 µM (active)
O=C(Nc1cc(S(=O)(=O)Nc2ccc(Cl)cc2)ccc1O)c1ccc(S(=O)(=O)N2CCCCCC2)cc1	2.73 µM (active)
O=C(O)CCCCCN1C(=O)/C(=C/c2nc3ccccc3[nH]2)SC1=S	6.09 µM (active)
Cc1c(CCC(=O)O)c(=O)oc2cc(OCc3ccccc3Br)ccc12	10.6 µM (active)

Exercise: Consider the molecule O=C(O)COc1ccc2c(c1)O/C(=C\c1ccco1)C2=O and give its measured IC50.
Key: 3.74 µM (active)

Exercise: And for O=C(CSc1nc2sccc2c(=O)[nH]1)N1CCN(c2ccccc2)CC1 ?
Key: 10.7 µM (active)
